// values below are reported apparent KD of MS2 coat protein
- Test system: MS2 coat protein
- PROTOCOL_TEXT: apparent KD of MS2 coat protein; designed switch direction (-1 OFF switch, 1 ON switch): -1; higher = weaker reporter binding
- APPLIED_CONDITIONS: Eterna round: R95; input ligand: FMN 200 uM
The response must be a number in nM with no trailing unit.

Example entries begin here.
Dear colleague, please send me the reported apparent KD of MS2 coat protein for ACGUGAUAUCUGUCGGUGGACAUGAGGAUCACCCAUGUAAGCUUUUUGCUUGUCUUAUAACCCGGUGACAGACCUUC [Inxeer] (puzzle: Sensor v3, turn-off variant 1) when you can.
23.1

Dear colleague, please send me the reported apparent KD of MS2 coat protein for AGUAGUAGUAUCCGAUCCUACAUGAGGAUCACCCAUGUAGCUAGACGUGCACGCGAUGCUCGUCAGACUACCGGAUG [salish99_TOv1_r3_041] (puzzle: Sensor v3, turn-off variant 1) when you can.
23.7

Dear colleague, please send me the reported apparent KD of MS2 coat protein for GAUUAUGCGAGCUUUAGGGACAUGAGGAUCACCCAUGUUCGUCUUAUUAAUCUAGGUGCACUAACAUACCUAAAUCU [JMF 32] (puzzle: Sensor v3, turn-off variant 1) when you can.
21.9

Dear colleague, please send me the reported apparent KD of MS2 coat protein for AAUAGCAAGCAAGAUCCUAACAUGAGGAUCACCCAUGUGCUCGUCUUGUAAAGUACUAUCACGAAAGUGAUAGUACA [Sensor 3, v1 - 49] (puzzle: Sensor v3, turn-off variant 1) when you can.
29.7

***
Dear colleague, please send me the reported apparent KD of MS2 coat protein for UUUAAUUUUUUUUUUUUACAAGCUUUUUGCUCGUCUUAUACAUGAGGAUCACCCAUGUGAGUGGGAGGUAAAUUAUC [JMF 77] (puzzle: Sensor v3, turn-off variant 2) when you can.
57.7
